System: Streptococcus pneumoniae
Assay: Antimicrobial activity against drug-resistant Streptococcus pneumoniae isolate 1077 after 29 passages with azithromycin measured after 10 antibiotic-free subculture by multi-step resistance selection technique
Type: functional
MIC for assorted compounds

>  <compound>
CC[C@H]1OC(=O)[C@H](C)C(=O)[C@H](C)[C@@H](O[C@@H]2O[C@H](C)C[C@H](N(C)C)[C@H]2O)[C@](C)(OC)C[C@@H](C)C(=O)[C@H](C)[C@H]2N(CCCCn3cnc(-c4cccnc4)c3)C(=O)O[C@]12C

>  <meas.value>
0.125 µg/mL

$$$$
>  <compound>
CO/N=C1\CN(c2nc3c(cc2F)c(=O)c(C(=O)O)cn3C2CC2)CC1CN (stereo not drawn)

>  <meas.value>
0.25 µg/mL

$$$$

Now consider the entry below.
Lab book: MIC of CC[C@H]1OC(=O)[C@H](C)[C@@H](O[C@H]2C[C@@](C)(OC)[C@@H](O)[C@H](C)O2)[C@H](C)[C@@H](O[C@@H]2O[C@H](C)C[C@H](N(C)C)[C@H]2O)[C@](C)(O)C[C@@H](C)CN(C)[C@H](C)[C@@H](O)[C@]1(C)O noted as > 64 µg/mL

---

MIC for assorted compounds
Test system: Streptococcus pneumoniae
Assay: Antimicrobial activity against drug-resistant Streptococcus pneumoniae isolate 2527 after 50 passages by multi-step resistance selection technique
Assay type: functional
Write it as a number; the unit µg/mL goes unstated.

>  <compound>
C[C@@H](O)[C@H]1C(=O)N2C(C(=O)O)=C(SCCNC=N)C[C@H]12 [IMIPENEM ANHYDROUS]

>  <endpoint.name>
MIC

>  <units.symbol>
µg/mL

>  <meas.value>
0.25

$$$$
>  <compound>
CO/N=C(\C(=O)N[C@@H]1C(=O)N2C(C(=O)O)=C(CSc3nc(=O)c(O)nn3C)CS[C@H]12)c1csc(N)n1 [CEFTRIAXONE]

>  <endpoint.name>
MIC

>  <units.symbol>
µg/mL

>  <meas.value>
8

$$$$
>  <compound>
CC[C@H]1OC(=O)[C@H](C)[C@@H](O[C@H]2C[C@@](C)(OC)[C@@H](O)[C@H](C)O2)[C@H](C)[C@@H](O[C@@H]2O[C@H](C)C[C@H](N(C)C)[C@H]2O)[C@](C)(OC)C[C@@H](C)C(=O)[C@H](C)[C@@H](O)[C@]1(C)O [CLARITHROMYCIN]

>  <endpoint.name>
MIC

>  <units.symbol>
µg/mL

>  <meas.value>
0.016

$$$$
>  <compound>
CN(C)c1cc(NC(=O)CNC(C)(C)C)c(O)c2c1C[C@H]1C[C@H]3[C@H](N(C)C)C(O)=C(C(N)=O)C(=O)[C@@]3(O)C(O)=C1C2=O [TIGECYCLINE]

>  <endpoint.name>
MIC

>  <units.symbol>
µg/mL

>  <meas.value>
0.016

$$$$
>  <compound>
COc1c(N2C[C@@H]3CCCN[C@@H]3C2)c(F)cc2c(=O)c(C(=O)O)cn(C3CC3)c12 [MOXIFLOXACIN]

>  <endpoint.name>
MIC

>  <units.symbol>
µg/mL

>  <meas.value>
8

$$$$

Lab book: MIC of CC[C@H]1OC(=O)[C@H](C)C(=O)[C@H](C)[C@@H](O[C@@H]2O[C@H](C)C[C@H](N(C)C)[C@H]2O)[C@](C)(OC)C[C@@H](C)C(=O)[C@H](C)[C@H]2N(CCCCn3cnc(-c4cccnc4)c3)C(=O)O[C@]12C [TELITHROMYCIN] noted as 0.016

Lab book: MIC of CCC[C@@H]1C[C@@H](C(=O)N[C@@H]([C@H]2O[C@H](SC)[C@H](O)[C@@H](O)[C@H]2O)[C@H](C)Cl)N(C)C1 [CLINDAMYCIN] noted as 0.016
